assay: Ratio of LD50/ED50; assay type: ADME
Catalogue of selectivity ratio readings, one per entry.

- Molecule: "O=C(O)/C=C\\C(=O)O.O=C(O)/C=C\\C(=O)O.O=C(O)CCCN1CCN(CCOC(c2ccccc2)c2ccc(F)cc2)CC1 (configuration not stated)"
  Relational Operator: "="
  selectivity ratio: 34
- Molecule: "Cl.NC(=O)CCN1CCN(CCOC(c2ccccc2)c2ccccc2)CC1"
  Relational Operator: "="
  selectivity ratio: 12
- Molecule: "O=C(O)/C=C\\C(=O)O.O=C(O)/C=C\\C(=O)O.O=C(O)CCN1CCN(CCOC(c2ccccc2)c2ccc(Cl)cc2)CC1 (configuration not stated)"
  Relational Operator: "="
  selectivity ratio: 32
- Molecule: "O=C(O)/C=C\\C(=O)O.O=C(O)/C=C\\C(=O)O.O=C(O)CCN1CCN(CCOC(c2ccccc2)c2ccc(F)cc2)CC1 (configuration not stated)"
  Relational Operator: "="
  selectivity ratio: 37
- Molecule: "O=C(CN1CCN(CCOC(c2ccccc2)c2ccccc2)CC1)N1CCOCC1.O=C(O)/C=C\\C(=O)O.O=C(O)/C=C\\C(=O)O.O=C(O)/C=C\\C(=O)O"
  Relational Operator: "="
  selectivity ratio: 8
- Molecule: "O=C(CN1CCN(CCOC(c2ccccc2)c2ccccc2)CC1)N1CCN(Cc2ccc3c(c2)OCO3)CC1.O=C(O)/C=C\\C(=O)O.O=C(O)/C=C\\C(=O)O"
  Relational Operator: "="
  selectivity ratio: 23
- Molecule: "Cl.N#CCCN1CCN(CCOC(c2ccccc2)c2ccccc2)CC1"
  Relational Operator: "="
  selectivity ratio: 7
- Molecule: "Cc1ccc(C(OCCN2CCN(CCC(=O)O)CC2)c2ccccc2)cc1.O=C(O)/C=C\\C(=O)O.O=C(O)/C=C\\C(=O)O (configuration not stated)"
  Relational Operator: "="
  selectivity ratio: 14
- Molecule: "O=C(O)/C=C\\C(=O)O.O=C(O)/C=C\\C(=O)O.O=C(O)CN1CCN(CCOC(c2ccccc2)c2ccc(F)cc2)CC1 (configuration not stated)"
  Relational Operator: "="
  selectivity ratio: 28
- Molecule: "O=C(O)/C=C\\C(=O)O.O=C(O)/C=C\\C(=O)O.O=C(O)CCN1CCN(CCOC(c2ccc(F)cc2)c2ccc(F)cc2)CC1"
  Relational Operator: "="
  selectivity ratio: 23
- Molecule: "CCOC(=O)CCN1CCN(CCCOC(c2ccccc2)c2ccccc2)CC1.Cl"
  Relational Operator: "="
  selectivity ratio: 18
- Molecule: "CCOC(=O)CCN1CCN(CCOC(c2ccc(F)cc2)c2ccc(F)cc2)CC1.Cl"
  Relational Operator: "="
  selectivity ratio: 20
- Molecule: "O=C(O)/C=C\\C(=O)O.O=C(O)/C=C\\C(=O)O.O=C(O)CCCCN1CCN(CCOC(c2ccccc2)c2ccc(F)cc2)CC1 (configuration not stated)"
  Relational Operator: "="
  selectivity ratio: 40
- Molecule: "CCCC(OCCN1CCN(CCC(=O)O)CC1)c1ccccc1.O=C(O)/C=C\\C(=O)O.O=C(O)/C=C\\C(=O)O (configuration not stated)"
  Relational Operator: ">"
  selectivity ratio: 28
- Molecule: "O=C(O)/C=C\\C(=O)O.O=C(O)/C=C\\C(=O)O.O=C(O)CCN1CCN(CCOC2c3ccccc3-c3ccccc32)CC1"
  Relational Operator: "="
  selectivity ratio: 10
- Molecule: "O=C(O)/C=C\\C(=O)O.O=C(O)/C=C\\C(=O)O.O=C(O)CCN1CCN(CCOC(c2ccccc2)c2cccc(C(F)(F)F)c2)CC1 (configuration not stated)"
  Relational Operator: "="
  selectivity ratio: 6
- Molecule: "O=C([O-])CCN1CCN(CCOC(c2ccccc2)c2ccccc2)CC1.[Na+]"
  Relational Operator: "="
  selectivity ratio: 17

Where do these numbers come from? They come from ChEMBL document CHEMBL1121384.
